Give measured cytotoxicity at 10 µM for each item. Keep answers brief.
- procedureSummary: Toxicity liver stage against HepG2, at 10uM
- Type: cell-based
- Set-up: test concentration 10 uM, cell line HepG2-A16-CD81EGFP
- conditionDescription: human, HepG2-A16-CD81EGFP cells; read-out: INHIBITION
Numbers only, in %.

[
  {
    "molecule": "CC1COCCN1C(=O)c1cnccn1 (configuration not stated)",
    "unitOfMeasure": "%",
    "cytotoxicity at 10 µM": -4.36
  }
]

Can you give me cytotoxicity at 10 µM for all of these, one by one?
1. O=C(NCC(O)c1ccc(F)cc1F)c1ccccc1F (configuration not stated)
2. COc1cc(OC)cc(N2CCC(NC(=O)c3cccn3C)CC2)c1
3. O=C(Nc1ccccc1)C1CN(CC2CCOCC2)CC12CCOCC2 (configuration not stated)
4. Cn1cccc1C1CCCN1Cc1noc(C(C)(C)C)n1 (configuration not stated)
5. C[C@H]1C(=O)NC[C@H]2CN(Cc3cccc(F)c3)C[C@H]21
6. CN1C(=O)CC(C(=O)O)C12CCN(c1ccc3c(n1)CCCC3)CC2 (configuration not stated)
7. Cc1cccc(C)c1Oc1ncccc1CNC(=O)C1COC(=O)N1 (configuration not stated)

Result:
1. 13.9
2. -2.1
3. 1.65
4. -4.4
5. 0.964
6. 2.78
7. -4.65

---

- procedureSummary: Toxicity liver stage against HepG2, at 10uM
- Assay type: cell-based
- Design: test concentration 10 uM, cell line HepG2-A16-CD81EGFP
- conditionDescription: human, HepG2-A16-CD81EGFP cells; read-out: INHIBITION
Assign cytotoxicity at 10 µM to each entry below.
One number for each entry, in %.

These recorded examples may help you get a feel for the data.
[
  {
    "compound": "CN1C[C@@H](N)C[C@H]1C(=O)N1CCC(CCCc2ccccc2)CC1",
    "unitOfMeasure": "%",
    "cytotoxicity at 10 µM": -8.29
  },
  {
    "compound": "Cc1ccccc1OC1CCN(CC(=O)Nc2ccn(C)n2)CC1",
    "unitOfMeasure": "%",
    "cytotoxicity at 10 µM": -3.34
  },
  {
    "compound": "CC(C)(C)c1nc(CC(=O)N2CCCC(n3cncn3)C2)cs1 (stereo unspecified)",
    "unitOfMeasure": "%",
    "cytotoxicity at 10 µM": -11.2
  },
  {
    "compound": "CCOC(=O)N1CCC(NC(C)Cc2cc(C)n[nH]2)CC1 (stereo unspecified)",
    "unitOfMeasure": "%",
    "cytotoxicity at 10 µM": -2.65
  },
  {
    "compound": "COCCN(C)C[C@@H]1CN(Cc2ccnc3ccccc23)C[C@@H]1CO",
    "unitOfMeasure": "%",
    "cytotoxicity at 10 µM": -6.33
  }
]

Each compound below has a reported value. Please supply its cytotoxicity at 10 µM.
1. CNC(=O)[C@@H]1CN(C(=O)CCOC)C[C@H]1c1ccnc(N2CCCC2)n1
2. CCc1nc(Nc2ccc(C(=O)NC)cc2)c2c(n1)c(C)nn2CC
3. O=C(c1ccoc1)N1CCO[C@]2(CCC[C@@H]2COCc2cccnc2)C1
4. CC(CC#N)n1ccc(C(F)(F)F)n1 (stereo unspecified)
5. CN1CCN(C(=O)c2cccn2C)c2ccccc2C1
6. O=C(NCc1ccc(-n2cncn2)nc1)c1ccc2c(c1)CCO2

Result:
1: -3.43; 2: 9.38; 3: 6.32; 4: -8.88; 5: 7.28; 6: -10.2
